Each record here notes measured pIC50.
target: human ALK2 R206H (Homo sapiens, UniProt Q04771, R206H); construct: expressed in transfected cells; host or cells: HEK293 (ATCC CRL1573), lentivirus transduction, blasticidin selection; test: Cell-based ALK2-R206H cell activity assay (Smad1-Ser463/Ser465 phosphorylation by AlphaLISA in HEK293-ALK2-R206H cells); settings: read-out: Cell Line (Cell Assay IC50)
Sequence (Q04771 21-509 R206H): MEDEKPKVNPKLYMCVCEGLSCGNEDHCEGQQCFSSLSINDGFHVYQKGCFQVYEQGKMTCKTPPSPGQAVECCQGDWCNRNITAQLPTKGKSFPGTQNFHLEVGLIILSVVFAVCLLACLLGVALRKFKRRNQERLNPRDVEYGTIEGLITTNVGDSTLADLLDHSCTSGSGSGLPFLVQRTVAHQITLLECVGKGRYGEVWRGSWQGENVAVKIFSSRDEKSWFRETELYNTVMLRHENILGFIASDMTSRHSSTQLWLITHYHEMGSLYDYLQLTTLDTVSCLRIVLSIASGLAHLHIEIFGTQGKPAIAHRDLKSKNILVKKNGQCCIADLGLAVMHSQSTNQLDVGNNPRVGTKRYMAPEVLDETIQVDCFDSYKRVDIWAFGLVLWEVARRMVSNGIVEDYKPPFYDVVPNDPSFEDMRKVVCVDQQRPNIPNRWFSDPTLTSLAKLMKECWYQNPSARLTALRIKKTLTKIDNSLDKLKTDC
pIC50: −log10 of the molar value.

// below: answered compounds
> print(dat)
                                   compound                              study.target  value.type  result
1  CC(C)N1CC[C@@H](c2ccc(-c3cc4c(N5CCN(C(=O)[C@H]6C[C@H](C#N)C6)CC5)ccnn4c3)cc2)C1  human ALK2 R206H (Homo sapiens, UniProt Q04771, R206H)       pIC50  > 7.00
2  O=C(OC1COC1)N1CCN(c2ccnn3cc(-c4ccc([C@@]5(F)CCCNC5)cc4)cc23)CC1  human ALK2 R206H (Homo sapiens, UniProt Q04771, R206H)       pIC50  > 7.00
3  CC(C)N1CCC(COC(F)F)(c2ccc(-c3cc4c(N5CCN(C(=O)OC6COC6)CC5)ccnn4c3)cc2)CC1  human ALK2 R206H (Homo sapiens, UniProt Q04771, R206H)       pIC50  > 7.00
4  CC(C)NC(=O)N1CCN(c2ccnn3cc(-c4ccc(C5(F)CCN(C(C)C)CC5)cc4)cc23)CC1  human ALK2 R206H (Homo sapiens, UniProt Q04771, R206H)       pIC50  > 7.00

May I ask what pIC50 has been recorded for CC(C)N1CCC[C@@H](c2ccc(-c3cc4c(N5CCN(C(=O)OC6(C#N)COC6)CC5)ccnn4c3)cc2)C1 ?
6.30 to 7.00

May I ask what pIC50 has been recorded for O=C(C1CC1)N1CCN(c2ccnn3cc(-c4ccc(OC5CCNC5)cc4)cc23)CC1 (stereo not drawn) ?
> 7.00

May I ask what pIC50 has been recorded for CC(C)N1CCCC(c2ccc(-c3cc4c(N5CCN(C(=O)N6CC(C#N)C6)CC5)ccnn4c3)cc2)C1 (stereo not drawn) ?
6.30 to 7.00

May I ask what pIC50 has been recorded for COC1(c2ccc(-c3cc4c(N5CCN(C(=O)OC6COC6)CC5)ccnn4c3)nc2)CCN(C(C)C)CC1 ?
> 7.00

May I ask what pIC50 has been recorded for CCN1CC[C@@H](c2ccc(-c3cc4c(N5CCN(C(=O)N6CC(C#N)C6)CC5)ccnn4c3)cc2)C1 ?
> 7.00

----------
biological target: human ALK2 R206H (Homo sapiens, UniProt Q04771, R206H); construct: expressed in transfected cells; host or cells: HEK293 (ATCC CRL1573), lentivirus transduction, blasticidin selection; assay: Cell-based ALK2-R206H cell activity assay (Smad1-Ser463/Ser465 phosphorylation by AlphaLISA in HEK293-ALK2-R206H cells); conditions: read-out: Cell Line (Cell Assay IC50)
pIC50: −log10 of the molar value.
value.type: pIC50

// below: answered molecules
> print(dat)
                               smiles.entry        result
1  O=C(C1CC1)N1CCN(c2ccnn3cc(-c4ccc5c(c4)COC54CNC4)cc23)CC1  6.30 to 7.00
2  CC(C)N1CCC[C@@H](c2ccc(-c3cc4c(N5CCN(C(=O)OC6COC6)CC5)ccnn4c3)nc2)C1        > 7.00

Fill in the recorded pIC50 for this molecule, with human ALK2 R206H (Homo sapiens, UniProt Q04771, R206H) as test system: CC(C)N1CCC(F)(c2ccc(-c3cc4c(N5CCN(C(=O)C6CC6)CC5)ccnn4c3)cc2)CC1
> 7.00

Fill in the recorded pIC50 for this molecule, with human ALK2 R206H (Homo sapiens, UniProt Q04771, R206H) as test system: NC1(c2ccc(-c3cc4c(N5CCN(C(=O)C6CC6)CC5)ccnn4c3)cc2)COC1
6.30 to 7.00

Values from patent US10233186B2
